target: human cloned 5-HT6 receptors (Homo sapiens, UniProt P50406)
Sequence (P50406 whole entry): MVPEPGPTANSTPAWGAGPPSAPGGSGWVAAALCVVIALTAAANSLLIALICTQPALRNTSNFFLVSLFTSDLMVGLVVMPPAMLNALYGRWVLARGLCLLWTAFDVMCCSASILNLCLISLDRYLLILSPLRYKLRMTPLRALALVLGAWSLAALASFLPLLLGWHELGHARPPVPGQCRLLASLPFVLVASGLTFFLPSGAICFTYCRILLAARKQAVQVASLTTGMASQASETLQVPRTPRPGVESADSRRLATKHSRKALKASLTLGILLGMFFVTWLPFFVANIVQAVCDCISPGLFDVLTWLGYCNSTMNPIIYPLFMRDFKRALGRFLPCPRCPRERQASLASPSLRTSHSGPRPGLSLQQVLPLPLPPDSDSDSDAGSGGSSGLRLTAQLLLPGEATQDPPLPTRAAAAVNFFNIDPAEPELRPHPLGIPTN
pKi: −log10 of the molar value. Counter-ions that a name gives are not always drawn.

compound: C[C@@H](NCC1CCc2ccc(NS(=O)(=O)c3cccc4ccccc34)cc2O1)c1ccccc1 (some centres unmarked)
pKi: 8.40

compound: C[C@@H](NCC1CCc2ccc(N(C)S(=O)(=O)c3ccc(N)cc3)cc2O1)c1ccccc1 (some centres unmarked)
pKi: 8.40

compound: C[C@@H](NC[C@H]1CCc2ccc(NS(=O)(=O)c3cccc4ccccc34)cc2O1)c1ccccc1 [Example 46A, Hydrochloride]
pKi: 7.43

compound: COc1ccc(S(=O)(=O)Nc2ccc3c(c2)OC(CN[C@H](C)c2ccccc2)CC3)cc1 (some centres unmarked)
pKi: 8.00

compound: O=S(=O)(Nc1ccc2c(c1)OC(CNCCCOc1ccccc1)CC2)c1ccccc1 (centres unmarked)
pKi: 8.70

compound: C[C@@H](NC[C@@H]1CCc2ccc(NS(=O)(=O)c3ccc(N)cc3)cc2O1)c1ccccc1 [Example 47B, Hydrochloride]
pKi: 7.96

compound: C[C@@H](NCC1CCc2ccc(NS(=O)(=O)c3cccc4nonc34)cc2O1)c1ccccc1 (some centres unmarked)
pKi: 8.30

compound: O=S(=O)(Nc1ccc2c(c1)OC(CNCCCO)CC2)c1ccc(F)cc1 (centres unmarked)
pKi: 7.31

compound: O=S(=O)(Nc1ccc2c(c1)OC(CNCCCO)CC2)c1ccccc1 (centres unmarked) [Example 5, Hemifumarate salt]
pKi: 8.30

compound: O=S(=O)(Nc1ccc2c(c1)OC(CN1CCSCC1)CC2)c1ccccc1 (centres unmarked)
pKi: 8.05

compound: CC(C)CCCC(C)NCC1CCc2ccc(NS(=O)(=O)c3ccccc3)cc2O1 (centres unmarked)
pKi: 8.10

compound: CC(C)C[C@H](CO)NCC1CCc2ccc(NS(=O)(=O)c3ccccc3)cc2O1 (some centres unmarked)
pKi: 8.52

compound: C[C@@H](NCC1CCc2ccc(NS(=O)(=O)c3ccc(Br)s3)cc2O1)c1ccccc1 (some centres unmarked)
pKi: 8.30

compound: C[C@@H](NCC1CCc2ccc(NS(=O)(=O)c3ccccc3)cc2O1)c1ccccc1 (some centres unmarked)
pKi: 9.00

compound: O=S(=O)(Nc1ccc2c(c1)OC(CNCCCO)CC2)c1ccc(Cl)cc1 (centres unmarked)
pKi: 7.96

compound: C[C@@H](NC[C@@H]1CCc2ccc(NS(=O)(=O)c3cccc4ccccc34)cc2O1)c1ccccc1 [Example 46B, Hydrochloride]
pKi: 8.70

compound: COc1ccc(S(=O)(=O)Nc2ccc3c(c2)OC(CNCCCO)CC3)cc1 (centres unmarked)
pKi: 7.41

compound: O=S(=O)(Nc1ccc2c(c1)OC(CN[C@@H](CO)c1ccccc1)CC2)c1ccccc1 (some centres unmarked)
pKi: 8.30

compound: CC(CCc1ccccc1)NCC1CCc2ccc(NS(=O)(=O)c3ccccc3)cc2O1 (centres unmarked)
pKi: 8.22

compound: C[C@@H](NCC1CCc2ccc(NS(=O)(=O)c3ccc(C(F)(F)F)cc3)cc2O1)c1ccccc1 (some centres unmarked)
pKi: 8.22

compound: O=S(=O)(Nc1ccc2c(c1)OC(CNCc1ccncc1)CC2)c1ccccc1 (centres unmarked)
pKi: 7.77

compound: CC(C)NCC1CCc2ccc(NS(=O)(=O)c3ccccc3)cc2O1 (centres unmarked)
pKi: 7.80

compound: C[C@@H](NCC1CCc2ccc(NS(=O)(=O)c3ccc(Cl)cc3)cc2O1)c1ccccc1 (some centres unmarked)
pKi: 8.30

compound: O=S(=O)(Nc1ccc2c(c1)OC(CNC(Cc1ccccc1)c1ccccc1)CC2)c1ccccc1 (centres unmarked)
pKi: 7.08

compound: C[C@@H](NC[C@H]1CCc2ccc(NS(=O)(=O)c3ccccc3)cc2O1)c1ccccc1 [Example 45A]
pKi: 9.00

compound: CC(C)(CO)NCC1CCc2ccc(NS(=O)(=O)c3ccccc3)cc2O1 (centres unmarked)
pKi: 7.39

compound: O=S(=O)(Nc1ccc2c(c1)OC(CNC1CCc3ccccc31)CC2)c1ccccc1 (centres unmarked)
pKi: 8.15

compound: COc1cccc(CNCC2CCc3ccc(NS(=O)(=O)c4ccccc4)cc3O2)c1 (centres unmarked)
pKi: 8.40

compound: C[C@@H](NC[C@@H]1CCc2ccc(NS(=O)(=O)c3ccccc3)cc2O1)c1ccccc1 [Example 45B]
pKi: 7.77
